# Tested on: C. elegans
# experimental.protocol: microbe, parasite or virus in culture
# study.conditions: Caenorhabditis elegans, 0 h, read-out: Percentage of motility inhibition 0 h, Table S2, C. elegans SS assay, 110 μM, 0 h, averages of 4 data points
Binning scheme for inhibition at 110 µM: Low: < 1%; Mid: ≥ 1% and < 20%; High: ≥ 20%

Query string: Field: class (inhibition at 110 µM) — entry: `O=C(C[C@H]1NCCC[C@@H]1O)Cn1cnc2ccccc2c1=O`
Result string: Low

Continuing:
Query string: Field: class (inhibition at 110 µM) — entry: CC(C)=CCC[C@](C)(O[C@@H]1O[C@H](CO[C@@H]2OC[C@H](O)[C@H](O)[C@H]2O)[C@@H](O)[C@H](O)[C@H]1O)[C@H]1CC[C@]2(C)[C@@H]1[C@H](O)C[C@@H]1[C@@]3(C)CC[C@H](O[C@@H]4O[C@H](CO)[C@@H](O)[C@H](O)[C@H]4O[C@@H]4O[C@H](CO)[C@@H](O)[C@H](O)[C@H]4O)C(C)(C)[C@@H]3CC[C@]12C [Ginsenoside Rb2]
Result string: Mid

Query string: Field: class (inhibition at 110 µM) — entry: `CC[C@H]1OC(=O)[C@H](C)[C@@H](O[C@H]2C[C@@](C)(OC)[C@@H](O)[C@H](C)O2)[C@H](C)[C@@H](O[C@@H]2O[C@H](C)C[C@H](N(C)C)[C@H]2O)[C@](C)(O)C[C@@H](C)/C(=N\OCOCCOC)[C@H](C)[C@@H](O)[C@]1(C)O`
Result string: High

Query string: Field: class (inhibition at 110 µM) — entry: `Oc1cc(Cl)ccc1Oc1ccc(Cl)cc1Cl`
Result string: High

Query string: Field: class (inhibition at 110 µM) — entry: Nc1nc2c(nc(O)n2[C@@H]2O[C@H](CO)[C@@H](O)[C@H]2O)c(=O)[nH]1 [8‐Hydroxyguanosine]
Result string: Mid

Query string: Field: class (inhibition at 110 µM) — entry: COc1cc(C2Oc3cc([C@H]4Oc5cc(O)cc(O)c5C(=O)[C@@H]4O)ccc3OC2CO)ccc1O (stereo partly drawn)
Result string: Low

Query string: Field: class (inhibition at 110 µM) — entry: `O=C(Nc1ccc(Cl)cc1)Nc1ccc(Cl)c(Cl)c1`
Result string: Mid

Query string: Field: class (inhibition at 110 µM) — entry: `CN1C(=O)CC[C@H]1c1cccnc1`
Result string: High

Query string: Field: class (inhibition at 110 µM) — entry: `O=C(O)c1cccc2nc3ccccc3nc12`
Result string: Low

Query string: Field: class (inhibition at 110 µM) — entry: `CO[C@H]1/C=C/O[C@@]2(C)Oc3c(C)c(O)c4c(c3C2=O)C2=NC3(CCN(CC(C)C)CC3)NC2=C(NC(=O)/C(C)=C\C=C\[C@H](C)[C@H](O)[C@@H](C)[C@@H](O)[C@@H](C)[C@H](OC(C)=O)[C@@H]1C)C4=O`
Result string: High

Query string: Field: class (inhibition at 110 µM) — entry: `COc1cc(O)c(CC=C(C)C)c(O)c1C(=O)/C=C/c1ccc(O)cc1`
Result string: High

====

inhibition at 110 µM listing for selected compounds.
# Tested on: C. elegans
# experimental.protocol: microbe, parasite or virus in culture
# study.conditions: Caenorhabditis elegans, 24 h, read-out: Percentage of motility inhibition 24 h, Table S2, C. elegans SS assay, 110 μM, 24 h, averages of 4 data points
Enter your answer as a number in %; do not include the unit.

Record summary for `O=C1C=C2C=C[C@@H]3C[C@@]2(O1)[C@H]1CCCCN31` : reported inhibition at 110 µM = 12

Continuing:
Record summary for C[C@@H]1CC[C@]2(C(=O)O[C@@H]3O[C@H](CO)[C@@H](O)[C@H](O)[C@H]3O)CC[C@]3(C)C(=CC[C@@H]4[C@@]5(C)CC[C@H](O)[C@@](C)(CO)[C@@H]5CC[C@]43C)[C@@H]2[C@]1(C)O [Pedunculoside] : reported inhibition at 110 µM = 13

Record summary for `O=c1[nH]c(=O)n([C@H]2C[C@H](O)[C@@H](CO)O2)cc1I` : reported inhibition at 110 µM = 11

Record summary for COc1cc(CNC(=O)CCCCCCC(C)C)ccc1O [Dihydrocapsaicin] : reported inhibition at 110 µM = 7
